format: in vivo; details: human, plasma, po, 300 mg
measured.parameter: AUC(0-t) (µM·h)

[
  {
    "smiles": "CO[C@H]1/C=C/O[C@@]2(C)Oc3c(C)c(O)c4c(O)c(c(/C=N/N5CCN(C)CC5)c(O)c4c3C2=O)NC(=O)/C(C)=C\\C=C\\[C@H](C)[C@H](O)[C@@H](C)[C@@H](O)[C@@H](C)[C@H](OC(C)=O)[C@@H]1C",
    "unit.symbol": "µM·h",
    "quantitative.result": 55.5
  }
]

* * *

system: OATP1B; experiment: Nonlinear regression of AUCR^-1 vs rifampicin Cmax; type: in vivo, human; details: from AUCR based on AUC0-24h
measured.parameter: fRIF (fraction sensitive to inhibition by rifampicin)

[
  {
    "compound": "CC(C)c1nc(N(C)S(C)(=O)=O)nc(-c2ccc(F)cc2)c1/C=C/[C@@H](O)C[C@@H](O)CC(=O)O [Rosuvastatin, rosuvastatin]",
    "quantitative.result": 0.702
  },
  {
    "compound": "C[C@H](CCC(=O)O[C@@H]1O[C@H](C(=O)O)[C@@H](O)[C@H](O)[C@H]1O)[C@H]1CC[C@H]2[C@@H]3[C@H](O)C[C@@H]4C[C@H](O)CC[C@]4(C)[C@H]3CC[C@]12C [CDCA-24G, chenodeoxycholate‐24‐glucuronide]",
    "quantitative.result": 0.801
  },
  {
    "compound": "CCCCC(=O)N(Cc1ccc(-c2ccccc2-c2nnn[nH]2)cc1)[C@H](C(=O)O)C(C)C [Valsartan, valsartan, reference compound]",
    "quantitative.result": 0.831
  },
  {
    "compound": "O=C(O)CCCCCCCCCCCCCCC(=O)O [HDA, hexadecanedioic acid]",
    "quantitative.result": 0.776
  },
  {
    "compound": "C[C@H](CCC(=O)NCC(=O)O)[C@H]1CC[C@H]2[C@@H]3[C@H](O)C[C@@H]4C[C@H](O[C@@H]5O[C@H](C(=O)O)[C@@H](O)[C@H](O)[C@H]5O)CC[C@]4(C)[C@H]3CC[C@]12C [GCDCA-G, glycochenodeoxycholate‐3‐glucuronide]",
    "quantitative.result": 1
  },
  {
    "compound": "O=C(O)C[C@H](O)C[C@H](O)/C=C/c1c(C2CC2)nc2ccccc2c1-c1ccc(F)cc1 [Pitavastatin, pitavastatin, reference compound]",
    "quantitative.result": 0.810
  }
]

Hey, just so you know, these numbers are from paper PMC7158214.
